Measured IC50 accompanies every entry in the list below.
Target: AmpC (P99) (Enterobacter cloacae, UniProt P05364)
Sequence (P05364 21-381): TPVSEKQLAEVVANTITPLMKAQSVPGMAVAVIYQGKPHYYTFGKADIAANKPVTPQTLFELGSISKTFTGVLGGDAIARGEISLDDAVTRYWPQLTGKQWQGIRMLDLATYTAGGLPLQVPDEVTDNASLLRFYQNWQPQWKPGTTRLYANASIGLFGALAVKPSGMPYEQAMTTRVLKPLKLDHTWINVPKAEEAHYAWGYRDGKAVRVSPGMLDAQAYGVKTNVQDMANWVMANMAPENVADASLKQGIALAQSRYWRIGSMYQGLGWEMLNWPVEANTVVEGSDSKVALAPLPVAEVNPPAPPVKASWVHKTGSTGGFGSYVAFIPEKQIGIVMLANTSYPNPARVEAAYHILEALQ
Experiment: β-lactamase inhibitory activity, determination of IC50 (nitrocefin hydrolysis)
Numeric answer only, unit nM assumed.

Known results for compounds:
>  <compound>
O=C1N2CC=C(c3ccns3)C(C2)N1OS(=O)(=O)[O-].[Na+] (stereo not drawn) [Example 30, sulfate]

>  <IC50 [nM]>
200

$$$$
>  <compound>
O=C1N2CC(n3ccnc3)=CC(C2)N1OS(=O)(=O)[O-].[Na+] (stereo not drawn) [Example 34]

>  <IC50 [nM]>
59

$$$$
>  <compound>
NCc1ncc(C2=CCN3CC2N(OS(=O)(=O)O)C3=O)s1 (stereo not drawn) [Example 32]

>  <IC50 [nM]>
4400

$$$$
>  <compound>
Cn1cnc(C2=CCN3CC2N(OS(=O)(=O)[O-])C3=O)cc1=O.[Na+] (stereo not drawn) [Example 20, sulfate]

>  <IC50 [nM]>
1900

$$$$
>  <compound>
COc1ncc(C2=CC3CN(C2)C(=O)N3OS(=O)(=O)[O-])s1.[Na+] (stereo not drawn) [Example 39, sulfate]

>  <IC50 [nM]>
46

$$$$

Fill: IC50 (AmpC (P99) (Enterobacter cloacae, UniProt P05364)) for this compound Cn1cccc(C2=CCN3CC2N(OS(=O)(=O)[O-])C3=O)c1=O.[Na+] (stereo not drawn) [Example 16, sulfate] 7300

Provide the reported IC50 (system: AmpC (P99) (Enterobacter cloacae, UniProt P05364)) for O=C1N2CC=C(c3cnco3)C(C2)N1OS(=O)(=O)[O-].[Na+] (stereo not drawn) [Example 3] 770

For AmpC (P99) (Enterobacter cloacae, UniProt P05364), give the measured IC50 of the entry O=C1N2CC(c3cccnc3)=CC(C2)N1OS(=O)(=O)[O-].[Na+] (stereo not drawn) [Example 41] 40

Provide measured IC50 on AmpC (P99) (Enterobacter cloacae, UniProt P05364) for O=C1N2CC=C(c3ncco3)C(C2)N1OS(=O)(=O)[O-].[Na+] (stereo not drawn) [Example 4] please. 1500

Value source: patent US10183943B2
